Tested on: hematopoietic stem/progenitor cells (HSPCs)
experimentalDetails: HSPC mobilization into peripheral blood, colony forming unit (CFU) assay
conditionDescription: mice, single s.c. injection, peripheral blood, 0.25 hr post dose (TABLE 6)

molecule | No. CFU (×10^3)/mL ± SD, 0.25 hr
COc1cc(CO)cc(OC)c1-c1ccc(C[C@H](NC(=O)[C@@H]2CCCN2S(=O)(=O)c2cc(Cl)cc(Cl)c2)C(=O)O)cc1 | 2.74 ± 0.69 (×10^3)/mL
CCOCc1cc(OC)c(-c2ccc(C[C@H](NC(=O)[C@@H]3CCCN3S(=O)(=O)c3cc(Cl)cc(Cl)c3)C(=O)O)cc2)c(OC)c1 | 2.58 ± 0.65 (×10^3)/mL
COc1cccc(OC)c1-c1ccc(C[C@H](NC(=O)[C@]2(C)CCCN2S(=O)(=O)c2cc(Cl)cc(Cl)c2)C(=O)O)cc1 | 2.78 ± 0.48 (×10^3)/mL
COCCOCCOCCOCc1cc(OC)c(-c2ccc(C[C@H](NC(=O)[C@@H]3CCCN3S(=O)(=O)c3cc(Cl)cc(Cl)c3)C(=O)O)cc2)c(OC)c1 | 2.57 ± 0.62 (×10^3)/mL
